- Tested on: HT29 colon
- Procedure text: NCI tumour cell line growth inhibition, 48 h
Item-by-item account of GI50

Examples with their reported GI50 follow.
# Compound, GI50
measured = [
    ("CN1CCN(CCOc2ccc(-c3cnc4c(-c5cccc(F)c5)cnn4c3)cc2)CC1", "1.51 µM"),
    ("CC1=C2C(=CC(C)(C)[C@@H]2O)C(=O)[C@](C)(O)C12CC2", "0.00623 µM"),
    ("CN(C)CCNC(=O)c1ccc(-c2nc3ccc4[nH]ncc4c3c3c2C2CCC3C2)cc1 (stereo not given)", "1.84 µM"),
    ("C#CCNC(=S)N/N=C(\\C)c1ccccn1", "0.234 µM"),
    ("C=C/C(C)=C/C[C@]1(C)[C@H](C)[C@@H](OC(=O)CCC)[C@H](O)[C@@]23C(=C[C@H](OC)C[C@@H]12)[C@@H](OC(=O)CCC)O[C@H]3OC(C)=O", "0.343 µM"),
    ("c1cc(-c2nnc(SSc3ncnc4nc[nH]c34)o2)ccn1", "2.42 µM"),
    ("Cc1ncc(C(=O)Nc2ccc(CN3CCN(C)CC3)c(C(F)(F)F)c2)cc1C#Cc1ccc(N)nc1", "0.129 µM"),
    ("Cc1cc(Nc2nc(C(=O)Nc3ccccc3)nc3ccccc23)n[nH]1", "17.6 µM"),
    ("Cc1cc(C)c2c(n1)sc1c(N)ncnc12", "16.2 µM"),
    ("CC[C@@]1(OC(=O)CN)C(=O)OCc2c1cc1n(c2=O)Cc2c-1nc1cc3c(cc1c2CCl)OCO3", "0.052 µM"),
]

Query CN(Cc1ccc(C(F)(F)F)cc1)CC(O)C(=O)Nc1ccc(Cl)cc1 (stereo not given) on HT29 colon; GI50 returned: 1.39 µM

Response field GI50 (HT29 colon) for item COc1ccc(/C=C/C(=O)c2ccc(-n3cc(CN4CCN(c5cc6c(cc5F)c(=O)c(C(=O)O)cn6C5CC5)CC4)nn3)cc2)cc1OC : 1.24 µM

---

// TGI lookup, one value per entry
- Test system: SK-OV-3 ovarian
- Procedure text: NCI tumour cell line growth inhibition, 48 h
Report as a plain number; the unit µM is understood.

# Compound, TGI (µM)
records = [
    ("O=c1c2cc(-c3ccccc3)sc2ncn1Cc1ccc(Cl)c(Cl)c1", 58),
    ("CO[C@H]1O[C@@H]2CO[C@@H](c3ccccc3)O[C@H]2[C@@H]2C/C=C\\CCC[C@@]12O", 99.7),
    ("Clc1cccc(N2CCN(CCCN3CCc4c([nH]c5ccccc45)C3c3cccnc3)CC2)c1 (centres undefined)", 32.2),
]

Continue with the compound presented below.
Kindly note the recorded TGI for CCCc1c(C(=O)OCC)[nH]c(-c2ccc(-c3[nH]c(C(=O)OCC)c(CCC)c3C(=O)OCC)s2)c1C(=O)OCC , which is 98.6

---

- System: XF 498 CNS
- Procedure text: NCI tumour cell line growth inhibition, 48 h
Readout type: TGI (µM)
Report only the number, with the unit µM understood.

# Compound, TGI, µM
records = [
    ("COc1cccc(/C(Cl)=C(\\C=O)c2cccc(OC)c2)c1", 27.1),
]

The recorded TGI with XF 498 CNS for Cc1c(C(=O)/C=C/C=C/c2ccccc2)[n+](=O)c2ccccc2n1[O-] was 95.3

Hey, XF 498 CNS data for CC(=O)NNc1nc(C)c(C(=O)NNC(=O)C(=O)Nc2cccc(C(C)=O)c2)s1 : TGI came out at 30.6

Noted TGI for COc1ccc2nc3c(c(NCCCN(C)C)c2c1)CCCC3 , tested on XF 498 CNS: 20.4

Entry O=C(N/C(=C\c1ccc(Br)cc1)c1nc2ccccc2[nH]1)c1ccccc1 ; assay system XF 498 CNS; TGI recorded at 34.2

Form field, TGI with XF 498 CNS, item C#CCNC(=O)NCCCCC(NC(=O)OCc1ccccc1)C(=O)OCc1ccccc1 (stereo not given) : 40.8

---

- Tested on: SF-268 CNS
- Procedure text: NCI tumour cell line growth inhibition, 48 h
Measured TGI accompanies every entry in the list below.
Answer with a number only, understood to be in µM.

# Molecule, Target or system, TGI [µM]
rows = [
    ("Oc1ccccc1C1C=C(c2ccccc2)NC(N2CCCCC2)=C1c1nc2ccccc2[nH]1 (stereo not given)", "SF-268 CNS", 27.5),
]

Kindly review the next molecule as well.
Form field TGI, entry COc1ccc(-c2cc(C(=O)Nc3cc(C(F)(F)F)cc(C(F)(F)F)c3)c3ccccc3n2)cc1 : 32.2

---

- System: SR leukemia
- Procedure text: NCI tumour cell line growth inhibition, 48 h; in the data active = GI50 below about 0.43 µM; inactive = the rest
Mark one answer only. Choices: 1.0 = active, 0.0 = inactive

Recorded results for 3 compounds are shown here.
# Compound structure, Cat
measured = [
    ("Cc1cc(C)c2c(n1)sc1c(N)ncnc12", 0.0),
    ("CCn1c(-c2cc3c([nH]c4ccccc43)c(-c3cccc(O)c3)n2)n[nH]c1=S", 0.0),
    ("C=C/C(C)=C/C[C@]1(C)[C@H](C)[C@@H](OC(=O)CCC)[C@H](O)[C@@]23C(=C[C@H](OC)C[C@@H]12)[C@@H](OC(=O)CCC)O[C@H]3OC(C)=O", 1.0),
]

Query: What call does the record list for CN1CCN(Cc2ccc(NC(=O)c3cncc(C#Cc4cnc(N)cc4C#N)c3)cc2C(F)(F)F)CC1 ?
Reply: 0.0

Query: Hello, I am checking results. What call was entered for NS(=O)(=O)c1ccc(N=Nc2c(O)[nH]c3ccc(C(=O)NCc4ccncc4)cc23)cc1 ?
Reply: 0.0

Query: What outcome does the record of this test show for COC(=O)C12CC(NC(=O)c3csc([C@@H](C[C@H](C(C)C)N(C)C(=O)[C@@H](NC(=O)[C@H]4CCCCN4C)C4CC4)OC(C)=O)n3)(C1)C2 ?
Reply: 1.0

Query: What is the recorded call for this compound in the test? CC(C)(O)/C=C/C(=O)[C@](C)(O)[C@H]1[C@H](O)C[C@@]2(C)[C@@H]3CC=C4[C@@H](C[C@H](O)C(=O)C4(C)C)[C@]3(C)C(=O)C[C@]12C
Reply: 1.0

---

- Tested on: PC-3 prostate
- Procedure text: NCI tumour cell line growth inhibition, 48 h
Readout type: TGI

The following compounds have reported results that may help.
# Compound, Readout type, Value
records = [
    ("Cc1ncc(C(=O)Nc2ccc(CN3CCN(C)CC3)c(C(F)(F)F)c2)cc1C#Cc1ccc(N)nc1", "TGI", "5.89 µM"),
    ("Cc1ccc(-c2cc(O)c3nc4ccccc4n3c2)cc1", "TGI", "> 100 µM"),
    ("NS(=O)(=O)c1ccc(N2N=C3c4ccccc4CC3C2c2cccs2)cc1 (configuration not stated)", "TGI", "59.5 µM"),
    ("Nc1cccc(S(=O)(=O)Nc2nnc(S(N)(=O)=O)s2)c1", "TGI", "> 100 µM"),
    ("Cc1ccc(S(=O)(=O)[C@@H](Cl)[C@H]2N=C(Cl)NN=C2c2ccccc2)cc1", "TGI", "39.5 µM"),
    ("COc1ccc(Nc2nc3ccccc3c3occc23)cc1", "TGI", "> 50 µM"),
    ("CC1CN(S(=O)(=O)c2oc(-c3ccc(Cl)cc3)nc2C#N)CC(C)O1 (configuration not stated)", "TGI", "4.04 µM"),
    ("CCN1CCN(Cc2ccc(NC(=O)Nc3nc4ccc(Oc5ccnc(C(=O)NC)c5)cc4s3)cc2C(F)(F)F)CC1", "TGI", "3.58 µM"),
    ("C=C(C)C1CC/C(C)=C/CC[C@]2(C)O[C@@H]2CCC2=CC1OC2=O (some centres not stated)", "TGI", "> 100 µM"),
    ("Cc1ccnc2nc(N)ccc12", "TGI", "> 100 µM"),
]

Measured TGI of CCN(CC)CCCNC(=O)c1cc2cc(NC(=O)c3cc4cc([N+](=O)[O-])ccc4[nH]3)ccc2[nH]1 : > 100 µM

For this compound ( CCOc1ccc(N=NC2C(=O)N(C(=O)CC(=O)Nc3ccccc3)N=C2C)cc1 (configuration not stated) ), measured TGI is > 100 µM

TGI reported for this compound COc1ccccc1N=Nc1c(O)c(S(=O)(=O)O)cc2cc(S(=O)(=O)O)ccc12 : > 100 µM

So for O=c1c2cc(-c3ccccc3)sc2ncn1Cc1ccc(Cl)c(Cl)c1 , the logged TGI turned out to be 55.1 µM

---

- Tested on: 786-0 renal
- Procedure text: NCI tumour cell line growth inhibition, 48 h
Readout type: GI50

Check out these entries, answers already filled in.
# Molecule, GI50
rows = [
    ("CCn1c(-c2cc3c([nH]c4ccccc43)c(-c3cccc(O)c3)n2)n[nH]c1=S", "2.29 µM"),
    ("CC1CN(S(=O)(=O)c2oc(-c3ccc(Cl)cc3)nc2C#N)CC(C)O1 (stereo not given)", "1.62 µM"),
    ("CCCCCN(CCCCC)CC(O)c1cc(Cl)ccc1OC (stereo not given)", "13 µM"),
    ("CC(C)(O)/C=C/C(=O)[C@](C)(O)[C@H]1[C@H](O)C[C@@]2(C)[C@@H]3CC=C4[C@@H](C[C@H](O)C(=O)C4(C)C)[C@]3(C)C(=O)C[C@]12C", "0.218 µM"),
]

Measured GI50 of C#CCNC(=S)N/N=C(\C)c1ccccn1 : 0.354 µM
